B1: ZNF511 (parent)
chain: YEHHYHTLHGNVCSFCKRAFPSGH

- Variants of: B1
- protocol notes: protein stability index of a GFP-peptide fusion (GPS, HEK-293T) (PSI 1-6); higher = more stable;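 note: lentivirally expressed fusions sorted by FACS into six bins by GFP to DsRed ratio, PSI derived from sequencing read proportions per bin multiplied by bin number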
- reported conditions: c terminus: a fixed tail appended
Criterion: protein stability index meeting or surpassing 2. Met: True. Not met: False.

{"mutant code": "A19R", "answer label": "True"}
{"mutant code": "H4F", "answer label": "False"}
{"mutant code": "G23C", "answer label": "True"}
{"mutant code": "E2Q", "answer label": "True"}
{"mutant code": "V12I", "answer label": "True"}
{"mutant code": "H3N", "answer label": "True"}
{"mutant code": "C16H", "answer label": "False"}
{"mutant code": "E2D", "answer label": "True"}
{"mutant code": "V12G", "answer label": "False"}
{"mutant code": "T7S", "answer label": "False"}
{"mutant code": "H3T", "answer label": "True"}
{"mutant code": "P21C", "answer label": "True"}
{"mutant code": "E2G", "answer label": "True"}
{"mutant code": "T7I", "answer label": "True"}
{"mutant code": "S22P", "answer label": "True"}
{"mutant code": "F20I", "answer label": "True"}
{"mutant code": "G10F", "answer label": "False"}
{"mutant code": "S14N", "answer label": "True"}
{"mutant code": "L8N", "answer label": "True"}
{"mutant code": "H9T", "answer label": "True"}
{"mutant code": "T7D", "answer label": "True"}
{"mutant code": "F15W", "answer label": "True"}
{"mutant code": "G23S", "answer label": "True"}
{"mutant code": "V12L", "answer label": "True"}
{"mutant code": "H3P", "answer label": "True"}
{"mutant code": "E2H", "answer label": "True"}
{"mutant code": "S22D", "answer label": "True"}
{"mutant code": "T7R", "answer label": "True"}
{"mutant code": "V12E", "answer label": "True"}
{"mutant code": "H24A", "answer label": "True"}
{"mutant code": "P21R", "answer label": "False"}
{"mutant code": "S22L", "answer label": "True"}
{"mutant code": "S14G", "answer label": "False"}
{"mutant code": "G23T", "answer label": "True"}
{"mutant code": "C16E", "answer label": "True"}
{"mutant code": "S14M", "answer label": "True"}
{"mutant code": "K17A", "answer label": "True"}
